# system-name: Cathepsin K (Homo sapiens)
# Sequence (P43235 whole entry): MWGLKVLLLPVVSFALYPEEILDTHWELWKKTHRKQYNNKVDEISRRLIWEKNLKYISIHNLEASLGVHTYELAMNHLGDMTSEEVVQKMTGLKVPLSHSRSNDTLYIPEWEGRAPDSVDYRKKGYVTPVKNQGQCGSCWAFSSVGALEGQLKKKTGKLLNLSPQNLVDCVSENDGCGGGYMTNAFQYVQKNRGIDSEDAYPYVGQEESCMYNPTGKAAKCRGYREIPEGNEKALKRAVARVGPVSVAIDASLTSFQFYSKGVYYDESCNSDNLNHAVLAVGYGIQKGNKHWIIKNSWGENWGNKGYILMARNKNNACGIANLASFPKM
Non-standard residues stand in square brackets, D forms with d. Residues, ends and D or L forms follow the SMILES beside them. *: point of attachment. 1Nal = N[C@@H](Cc1cccc2ccccc12)C(=O)O; Cbz = O=C(OCc1ccccc1)*; azaGly = NNC(=O)O
experimental-readout: pKi
Bear in mind: pKi is minus log10 of a mol/L concentration; give just that figure.

Inquiry: Fill in: pKi of CC[C@H](C)[C@H](NC(=O)NNC(=O)[C@H](Cc1cccc2ccccc12)NC(=O)[C@H](CC(C)C)NC(=O)[C@H](C)NC(=O)OCc1ccccc1)C(=O)N[C@H](C(=O)OC)C(C)C (Cbz-AL[1Nal][azaGly]IV-OMe) is ___
Reply text: 8.24

Inquiry: Fill blank: measured pKi of the compound CC[C@H](C)[C@H](NC(=O)NNC(=O)[C@@H](NC(=O)[C@H](CC(C)C)NC(=O)[C@H](CCCN=C(N)N)NC(=O)OCc1ccccc1)C(C)C)C(=O)N[C@H](C(=O)OC)C(C)C (Cbz-RLV[azaGly]IV-OMe) is ____.
Reply text: 7.68

----------
Non-standard residues stand in square brackets, D forms with d. Residues, ends and D or L forms follow the SMILES beside them. *: point of attachment. Cbz = O=C(OCc1ccccc1)*; azaGly = NNC(=O)O
Observed Ki, system Cathepsin K (Homo sapiens).

Inquiry: What measured Ki goes with CC[C@H](C)[C@H](NC(=O)NNC(=O)[C@@H](NC(=O)[C@H](CC(C)C)NC(=O)[C@H](C)NC(=O)OCc1ccccc1)[C@@H](C)CC)C(=O)N[C@H](C(=O)OC)C(C)C (Cbz-ALI[azaGly]IV-OMe) ?
Reply text: 2.12 nM

Inquiry: Query (molecule): CC(C)C[C@H](NC(=O)[C@H](CCCNC(=N)N)NC(=O)OCc1ccccc1)C(=O)N[C@H](C(=O)NNC(=O)N[C@@H](Cc1c[nH]c2ccccc12)C(=O)N[C@H](C(=O)N[C@@H](C)C(N)=O)C(C)C)C(C)C (HELM PEPTIDE1{[O=C(OCc1ccccc1)[*:2]].R.L.V.[O=C(NN[*:1])[*:2]].W.V.A.[am]}$$$$V2.0) ; field requested: Ki
Reply text: 100 nM

Inquiry: // Ki lookup, key: CC[C@H](C)[C@H](NC(=O)NNC(=O)[C@@H](NC(=O)[C@H](CC(C)C)NC(=O)[C@H](CCCN=C(N)N)NC(=O)OCc1ccccc1)C(C)C)C(=O)N[C@H](C(=O)N[C@@H](Cc1c[nH]c2ccccc12)C(N)=O)C(C)C (HELM PEPTIDE1{[O=C(OCc1ccccc1)[*:2]].R.L.V.[O=C(NN[*:1])[*:2]].I.V.W.[am]}$$$$V2.0)
Reply text: 72 nM

Cited source: ChEMBL document CHEMBL1136001
